Catalogue of pIC50 values
target: T1, G protein-coupled receptor protein ZAQ (human, UniProt Q8TCW9 1-393); experiment: displacement of 125I-MIT1 from ZAQC-B1 CHO cell membrane fraction, glass fiber filter binding assay
T1 construct: Stably expressed in CHO/dhfr- cells (clone ZAQC-B1); Whole cells in the FLIPR assays; also called ZAQ receptor; ZAQC-B1 cells
T1 sequence (Q8TCW9 whole entry): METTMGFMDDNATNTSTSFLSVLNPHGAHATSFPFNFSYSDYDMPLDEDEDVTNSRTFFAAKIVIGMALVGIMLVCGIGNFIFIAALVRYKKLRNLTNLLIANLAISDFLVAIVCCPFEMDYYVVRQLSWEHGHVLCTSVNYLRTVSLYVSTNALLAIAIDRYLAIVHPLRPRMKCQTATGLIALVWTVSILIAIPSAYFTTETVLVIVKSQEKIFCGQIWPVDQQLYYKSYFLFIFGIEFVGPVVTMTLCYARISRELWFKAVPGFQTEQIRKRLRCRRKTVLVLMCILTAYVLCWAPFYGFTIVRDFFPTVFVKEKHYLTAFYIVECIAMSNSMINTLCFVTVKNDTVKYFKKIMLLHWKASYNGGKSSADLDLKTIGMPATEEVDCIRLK
Formally, pIC50 is defined as -log10 of the concentration c, with c in mol/L.

binder	pIC50
snake venom Mamba Intestinal Toxin 1 (MIT1) (ligand, also called snake venom MIT1; non-labeled MIT1) peptide: AVITGACERDLQCGKGTCCAVSLWIKSVRVCTPVGTSGEDCHPASHKIPFSGQRMHHTCPCAPNLACVQTSPKKFKCLSK	10.42

## Task In one line, give reported pIC50 of the entry human type ZAQ ligand mature peptide (type G, 86 amino acid residues) (ligand, also called human type ZAQ ligand peptide; ZAQL-1) peptide: AVITGACERDVQCGAGTCCAISLWLRGLRMCTPLGREGEECHPGSHKVPFFRKRKHHTCPCLPNLLCSRFPDGRYRCSMDLKNINF .
## Result 10.46

src = patent US20040077535A1
